These data points were gathered from PubChem BioAssay (NCI).

System: IGROV1 ovarian
METHOD_DESCRIPTION: NCI-60 one-dose screen, 48 h
EXPERIMENTAL_CONDITIONS: 10 µM
The panel holds about 83,000 compounds, 20% with a hit somewhere; the sample as a whole holds those more often. Activity calls are given as the source filed them. Rule for the calls: active = growth percent below 10; inactive = the rest.
Outcomes: YES = active, NO = inactive

COMPOUND	LABEL
Clc1nc2ccccc2cc1Cn1nnc(Cc2ccccc2)n1	NO
COc1cc(-c2nn(-c3cccc(NC(=O)CCN4CCN(c5ccccc5)CC4)c3)cc2-c2ccncc2)ccc1Cl	NO
COc1cc(/C=C2\CCCC3=C2NC(N)=NC3c2cc(OC)c(OC)c(OC)c2)cc(OC)c1OC (stereo not drawn)	YES
CCOC(=O)CC(S(=O)(=O)c1ccccc1)S(=O)(=O)c1ccccc1	NO
COc1ccc([C@H]2[C@H](C(=O)Nc3cccnc3)c3ccccc3C(=O)N2c2ccccc2)cc1	NO
COc1cc(-c2ccc[nH]2)[nH]c1/C=C1\N=C(C)C(C(=O)NC(C)C)=C1C	NO
O=S(=O)(Oc1ccc(-c2ccc3sccc3c2)cc1)c1ccccc1	NO
N#CC1=CC2CN(Cc3ccccc3)C1C1C(=O)N(c3ccccc3)C(=O)C21 (stereo not drawn)	NO
Nc1c(Br)cc(Br)c2c1[nH]c(=O)c1ccccc12	NO
C(=N\Nc1ncnc2sc3c(c12)CCNC3)/c1cccc2ccccc12	NO
C[C@@H](C[C@H](CCO)c1ccccc1)c1ccc2ccccc2c1	YES
COc1cc2cc(Oc3ccc(NC(=O)Nc4ccc(Cl)c(Cl)c4)cc3)c(C)nc2cc1OC	NO
COc1ccc(NC(=O)C2CC3C=CC2C3)c([N+](=O)[O-])c1 (stereo not drawn)	NO
O=C(O)c1ccc(-n2cc(CNc3ccc(Oc4ccccc4)cc3)c(-c3ccccc3)n2)cc1	NO
CN1CCc2c(sc3nc4n(-c5ccc(Cl)cc5)c(=O)[nH]n4c(=O)c23)C1	NO
O=C1c2c(c3c4ccccc4n(CCCCCCN4CCOCC4)c3c3[nH]c4ccccc4c23)C(=O)N1O	NO
CCN1CC(CCN2CCOCC2)C(C(c2ccccc2)c2ccccc2)C1=O (stereo not drawn)	NO
O=S(=O)(Oc1ccc(-c2ccc3sccc3c2)cc1)c1ccc(F)cc1	NO
COc1cc(/C=C2\CCCC3C2=Nc2ccccc2NC3c2cc(OC)c(OC)c(OC)c2)cc(OC)c1OC (stereo not drawn)	YES
O=C1Cc2cc(CCN3CCN(c4nsc5ccccc45)CC3)c(Cl)cc2N1	NO
CCOC(=O)CN(c1sc(C)c(C)c1C(=O)OCC)S(=O)(=O)c1ccc(C)cc1	NO
COc1ccc(N(C)c2ncnc3occ(C)c23)cc1	YES
O=c1[nH]c(=O)n(C2C[C@H](O)[C@@H](CO)O2)cc1C(F)(F)F (stereo partly drawn)	NO
Cc1noc(C)c1CSc1ccccc1C(=O)N1CCN(c2cccc(C(F)(F)F)c2)CC1	NO
C[N+]1(CCCCC[N+]2(C)CCCC2)CCCC1	NO
COc1cc2c3c(n(C4CCNCC4)c(=O)c2cc1OC)-c1cc2c(cc1C3=O)OCO2	YES
Nc1nccc(OCCO)n1	NO
O=C1c2ccccc2C(=O)c2c1ccc(C(Br)Br)c2Cl	YES
Cc1cn(-c2cccc(NC(=O)c3ccc(C)c(Nc4nccc(-c5cccnc5)n4)c3)c2)cn1	YES
COc1ccc(/C(C#N)=C/c2ccccc2OC)cc1	NO
O=C(CCNC(=O)c1nc(-c2ccccc2)n(-c2ccc(Cl)cc2)n1)NO	NO
CN(C)CCCOc1ccccc1NC1=C(Cl)C(=O)C(Nc2ccccc2OCCCN(C)C)=C(Cl)C1=O	YES
COc1cc(-c2nn(-c3cccc(NC(=O)NCCNS(=O)(=O)c4ccc(Cl)cc4)c3)cc2-c2ccncc2)ccc1Cl	NO
CC1OC2CC(=O)OC2C2=C1C(=O)c1c(O)c3c(c(O)c1C2=O)C1CC(O)C3(O)C(C)O1 (stereo not drawn)	YES
COc1ccc(/C(=N\N)C(=O)c2ccccc2)cc1 (tested in a mixture with another compound)	NO
CC(=O)N[C@H](C(=O)N[C@@H](CCCNC(=N)N)C(=O)N[C@@H](CCCCN)C(=O)N[C@@H](CCCNC(=N)N)C(=O)NC(C(=O)N[C@@H](CC(C)C)C(=O)N[C@@H](CCCNC(=N)N)C(=O)N[C@@]1(C)CCC/C=C\CCC[C@@](C)(C(=O)N[C@@H](CCCNC(=N)N)C(=O)N[C@@H](CCC(=O)O)C(=O)N[C@@H](CC(C)C)C(=O)N[C@H](C(=O)N[C@@H](CCC(=O)O)C(N)=O)C(C)C)NC(=O)[C@H](CCC(N)=O)NC(=O)[C@H](CC(C)C)NC(=O)[C@H](CC(C)C)NC1=O)[C@@H](C)O)C(C)C (stereo partly drawn)	NO
CCC(CC)n1c(C)cc(=O)n1C(CC)CC	NO
CN1CCN(C2=Nc3ccccc3Oc3ccc(Cl)cc32)CC1	NO
